system: HepaRG; test: LDH release cytotoxicity, % of total lysis control; higher = more cytotoxic; details: 3.16228 µM; 48 h
Measured LDH release cytotoxicity values are reported for all entries that follow.
Respond numerically; units are % and should not be typed.

These recorded examples may help you get a feel for the data.
1) Cn1sc(Cl)cc1=O : -0.949
2) OCCOc1ccccc1 : -1.12
3) COCCOCCO : -0.999
4) CC(=O)CC(c1ccccc1)C1C(=O)Oc2ccccc2C1=O (configuration not stated) : -0.866
5) CN/C(=N\[N+](=O)[O-])NCc1cnc(Cl)s1 : -0.743
6) COc1nc(NC(C)C)nc(NC(C)C)n1 : -1.26
7) CCCCCCCCCc1ccc(O)cc1 : -0.715
8) COC(=O)c1ccc(C(=O)OC)cc1 [Dimethyl terephthalate] : -0.533
9) CC(Cc1ccc(OCC(=O)O)cc1)NCC(O)c1csc(C(F)(F)F)n1 (configuration not stated) : -1.22
10) OCCCl : -1.15

Challenge: Hi! What's the reported LDH release cytotoxicity for CC1(C)CON(Cc2ccccc2Cl)C1=O on HepaRG?
Response given: -6.33

Challenge: // fetch HepaRG LDH release cytotoxicity for CC(C)(O)c1ccc(CNC(=O)c2cccnc2Oc2ccc3nonc3c2)cc1
Response given: -0.724
